experiment: Metabolic stability assessed as rat UGT -mediated metabolism by measuring half life; type: ADME
Parameter: half-life (h)
Answers are plain numbers, in h.

For record CCC(c1nc2ncc(Cl)cc2[nH]1)[C@H]1CC[C@@H](c2ccnc3ccc(C(F)(F)F)cc32)CC1 (stereo partly specified) the listed half-life is 1.78

* * *

assay: Metabolic stability in mouse liver microsomes assessed as parent compound remaining at 0.5 uM after 10 mins; format: ADME, Microsome; conditions: read-out: Stabilty
Kindly apply the following: 1.0 if remaining at 10 min, 0.5 µM is less than 40%, 0.0 in every other case.

Look over these answered cases.
COCC(Nc1nnc(-c2ccc(OC)cc2)o1)[C@H]1CC[C@@H](c2ccnc3ccc(F)cc32)CC1 (stereo not given in full); 1.0
C[C@@H](c1ncc(-c2ccc(Cl)cc2)o1)[C@H]1CC[C@@H](c2ccnc3ccc(F)cc32)CC1; 0.0
COc1ccc(Nc2nnc([C@H](C)[C@H]3CC[C@@H](c4ccnc5ccc(F)cc54)CC3)o2)cc1; 1.0
C[C@@H](c1nnc(-c2ccc(Cl)cc2)[nH]1)[C@H]1CC[C@@H](c2ccnc3ccc(F)cc32)CC1; 0.0

Could you please tell me whether remaining at 10 min, 0.5 µM recorded for CCC(Nc1nnc(-c2ccc(OC)cc2)o1)[C@H]1CC[C@@H](c2ccnc3ccc(F)cc32)CC1 (stereo not given in full) is less than 40%?
1.0

Problem: For the molecule CCC(Nc1nnc(-c2ccc(OC)cc2)o1)[C@H]1CC[C@@H](c2ccnc3c(F)cc(F)cc32)CC1 (stereo not given in full) , is remaining at 10 min, 0.5 µM under 40%?
1.0
